Reference source for all entries: patent WO2015087187A1

# Test system: T1, recombinant human SOST (rhSOST) (human, UniProt Q9BQB4 24-213)
# T1 construct: Treated as one molecule; also called recombinant human SOST protein; human sclerostin
# T1 sequence: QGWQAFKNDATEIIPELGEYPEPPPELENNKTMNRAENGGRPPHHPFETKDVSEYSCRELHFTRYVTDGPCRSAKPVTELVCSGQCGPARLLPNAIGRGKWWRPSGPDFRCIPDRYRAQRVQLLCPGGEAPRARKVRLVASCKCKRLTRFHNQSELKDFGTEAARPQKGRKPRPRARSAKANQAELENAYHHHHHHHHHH
# Test name: SPR Biacore T200, IgG captured via anti-human Fc, rhSOST analyte, 37 C
Parameter measured: kon (M⁻¹ s⁻¹)
Express your answer in M⁻¹ s⁻¹, writing the number without its unit.

>  <Binder>
DM7 (antibody, V domains shown, also called mH11/mL14) VH: EVQLLESGGGLVQPGGSLRLSCAASGFTFSDYWMQWVRQAPGKGLEWVGAIYPGDGDTRYNQKFKDRFTISRDNSKNTLYLQMNSLRAEDTAVYYCARSMDYWGQGTLVTVSS VL: DIVMTQSPDSLAVSLGERATINCRASKTVDSYGNSFMHWFQQKPGQPPKLLIYHSSNLESGVPDRFSGSGSGTDFTLTISSLQAEDVAVYYCLQTIEHPYTFGQGTKLEIK

>  <Parameter measured>
kon

>  <Unit name>
M⁻¹ s⁻¹

>  <Endpoint result>
4.16e+06

$$$$

Query :: Please give measured kon of the following entry: DM26 (antibody, V domains shown, also called mH5/wt) VH: EVQLLESGGGLVQPGGSLRLSCAASGHTFTDYWMQWVRQAPGKGLEWISAIYPGDGDTRYNQKFKDRFTISRDNSKNTLYLQMNSLRAEDTAVYYCARSMDYWGQGTLVTVSS VL: DIVMTQSPDSLAVSLGERATINCRASKTVDSYGNSFMHWFQQKPGQPPKLLIHHSSNLESGVPDRFSGSGSGTDFTLTISSLQAEDVAVYYCLQTIEDPYTFGQGTKLEIK
Result :: 4.2e+06

Query :: Please give measured kon of the following entry: DP1 (antibody, human IgG2, kappa, V domains shown, also called pH1/pL1) VH: EVQLVESGGGLVQPGGSLRLSCAASGFTFSIYAMSWVRQAPGKGLEWVALISGGDTYTYYADSVKGRFTISRDNAKNSLYLQMNSLRAEDTAVYYCARHGYDDFDYWGQGTLVTVSS VL: DVVMTQSPLSLPVTLGQPASISCRSSQSLLDNDGETYLNWFQQRPGQSPRRLIYQVSKLDSGVPDRFSGSGSGTDFTLKISRVEAEDVGVYYCWQGTHFPHTFGGGTKVEIKR
Result :: 1.8e+06
